Values were extracted from patent US8389500B2.

target desc: wild-type human cardiac sodium channel, hNav1.5 (late sodium current) (Homo sapiens)
Construct: host or cells: HEK293
Sequence (Q14524 whole entry): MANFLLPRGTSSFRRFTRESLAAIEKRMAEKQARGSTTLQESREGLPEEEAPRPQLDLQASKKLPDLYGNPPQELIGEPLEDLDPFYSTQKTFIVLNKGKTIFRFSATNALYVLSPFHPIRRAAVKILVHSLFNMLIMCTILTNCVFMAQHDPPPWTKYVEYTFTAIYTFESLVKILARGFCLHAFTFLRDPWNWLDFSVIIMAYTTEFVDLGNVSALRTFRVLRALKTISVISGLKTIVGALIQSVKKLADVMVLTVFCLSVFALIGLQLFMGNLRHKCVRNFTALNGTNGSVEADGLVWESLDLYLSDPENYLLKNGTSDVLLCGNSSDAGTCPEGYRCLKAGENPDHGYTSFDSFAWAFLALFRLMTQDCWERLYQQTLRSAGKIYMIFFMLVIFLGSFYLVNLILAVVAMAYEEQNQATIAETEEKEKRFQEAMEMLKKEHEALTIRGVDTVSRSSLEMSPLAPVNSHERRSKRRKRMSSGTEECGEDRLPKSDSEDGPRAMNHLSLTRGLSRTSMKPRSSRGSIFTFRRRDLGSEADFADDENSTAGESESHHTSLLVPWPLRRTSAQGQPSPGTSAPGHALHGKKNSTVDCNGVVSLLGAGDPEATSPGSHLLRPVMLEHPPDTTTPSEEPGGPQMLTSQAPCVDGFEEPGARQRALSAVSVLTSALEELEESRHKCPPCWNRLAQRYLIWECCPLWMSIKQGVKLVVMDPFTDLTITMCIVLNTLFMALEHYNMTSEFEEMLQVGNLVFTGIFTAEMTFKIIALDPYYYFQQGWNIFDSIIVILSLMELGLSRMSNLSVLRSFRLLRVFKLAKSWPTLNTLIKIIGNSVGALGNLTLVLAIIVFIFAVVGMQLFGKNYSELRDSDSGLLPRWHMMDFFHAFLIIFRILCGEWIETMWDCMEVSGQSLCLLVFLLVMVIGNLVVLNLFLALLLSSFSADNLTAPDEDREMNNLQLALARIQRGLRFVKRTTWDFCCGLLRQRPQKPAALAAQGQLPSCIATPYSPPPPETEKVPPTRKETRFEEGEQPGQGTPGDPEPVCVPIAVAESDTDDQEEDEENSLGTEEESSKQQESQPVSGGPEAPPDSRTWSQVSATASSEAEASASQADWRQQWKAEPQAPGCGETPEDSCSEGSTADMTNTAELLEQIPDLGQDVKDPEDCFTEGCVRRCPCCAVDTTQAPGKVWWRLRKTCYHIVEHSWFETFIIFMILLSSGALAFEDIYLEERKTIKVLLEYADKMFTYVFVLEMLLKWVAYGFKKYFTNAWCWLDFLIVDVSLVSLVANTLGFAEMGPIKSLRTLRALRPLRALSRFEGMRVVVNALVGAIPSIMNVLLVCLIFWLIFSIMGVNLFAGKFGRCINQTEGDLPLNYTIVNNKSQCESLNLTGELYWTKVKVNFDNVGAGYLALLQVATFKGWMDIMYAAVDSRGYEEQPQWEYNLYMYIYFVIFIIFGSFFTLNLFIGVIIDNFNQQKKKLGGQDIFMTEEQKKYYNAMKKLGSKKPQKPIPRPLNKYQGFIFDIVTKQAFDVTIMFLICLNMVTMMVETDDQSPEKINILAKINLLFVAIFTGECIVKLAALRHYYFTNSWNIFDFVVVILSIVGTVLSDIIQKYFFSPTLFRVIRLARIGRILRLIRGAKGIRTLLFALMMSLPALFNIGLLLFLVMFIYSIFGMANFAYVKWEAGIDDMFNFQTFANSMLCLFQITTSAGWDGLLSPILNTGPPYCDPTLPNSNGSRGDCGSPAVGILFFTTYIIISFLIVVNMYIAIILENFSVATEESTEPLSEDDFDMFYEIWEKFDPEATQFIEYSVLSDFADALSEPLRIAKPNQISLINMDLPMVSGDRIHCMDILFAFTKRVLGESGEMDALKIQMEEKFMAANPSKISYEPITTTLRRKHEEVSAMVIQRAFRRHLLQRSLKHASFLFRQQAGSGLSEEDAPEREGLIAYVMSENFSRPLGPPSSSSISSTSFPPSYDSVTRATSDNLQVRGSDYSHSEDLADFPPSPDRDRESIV
assay overview: Late INa screening assay (PatchXpress whole cell patch clamp)
Assay type: cell-based
test conditions: 10 μM test compound; HEK293 hNav1.5; late INa generated with 10 μM Tefluthrin (some experiments 50 nM ATX II); read-out: Late INa % blk (10 μM test cmpd)
Please provide measured inhibition at 10 µM for the entries that follow.
Give the value in % but do not write % after it.

Qu. I am curious: what inhibition at 10 µM value has been reported for CS(=O)(=O)Nc1ccc(-c2ccc(F)c(F)c2)cc1 [PT-002] ?
Ans. 21.8

Qu. I am curious: what inhibition at 10 µM value has been reported for CS(=O)(=O)Nc1ccc(-c2ccccc2OC(F)(F)F)c(Cl)c1 [PT-022] ?
Ans. 54.8

Qu. I am curious: what inhibition at 10 µM value has been reported for CC(C)Oc1ccc(-c2ccc(NS(C)(=O)=O)c(Cl)c2)cc1 [PT-148] ?
Ans. 36.2

Qu. I am curious: what inhibition at 10 µM value has been reported for CS(=O)(=O)Nc1ccc(-c2ccc(Oc3ccccc3)cc2)cc1OC(F)(F)F [PT-119] ?
Ans. 6.6

Qu. I am curious: what inhibition at 10 µM value has been reported for N#Cc1cc(NS(=O)(=O)C2CC2)ccc1-c1ccc(Oc2ccccc2)cc1 [PT-124] ?
Ans. 32.2

Qu. I am curious: what inhibition at 10 µM value has been reported for Cc1cc(NS(C)(=O)=O)ccc1-c1cccc(OC(F)(F)F)c1 [PT-040] ?
Ans. 68.3

Qu. I am curious: what inhibition at 10 µM value has been reported for COc1cc(NS(C)(=O)=O)ccc1-c1ccc(Cl)cc1 [PT-032] ?
Ans. 42

Qu. I am curious: what inhibition at 10 µM value has been reported for CS(=O)(=O)Nc1ccc(-c2cc(C(F)(F)F)cc(C(F)(F)F)c2)c(Cl)c1 [PT-065] ?
Ans. 85.6

Qu. I am curious: what inhibition at 10 µM value has been reported for O=S(=O)(Nc1ccc(-c2ccc(Oc3ccccc3)cc2)c(Cl)c1)C1CC1 [PT-048] ?
Ans. 37.9
